Target: α3β4 (Homo sapiens, UniProt P30926+P32297)
Experiment: Activation of heteromeric nAChR by S1: α3β4
Conditions: peak currents, unit inferred
MEASUREMENT_LABEL: pEC50
Keep in mind that pEC50 stands for -log10 of concentration in molar terms.

Field pEC50 (α3β4 (Homo sapiens, UniProt P30926+P32297)), entry C[S+](C)C.[I-] [Compound S1, trimethylsulfonium iodide] : 2.85

====

Molecular target: α4(2)β2(3) (Homo sapiens, UniProt P17787+P43681)
Assay: Activation of heteromeric nAChR by S1: α4(2)β2(3)
Details: peak currents, unit inferred
MEASUREMENT_LABEL: EC50 (µM)
Write the answer as a number in µM, unit excluded.

Field EC50 (α4(2)β2(3) (Homo sapiens, UniProt P17787+P43681)), entry C[S+](C)C.[I-] [Compound S1, trimethylsulfonium iodide] : 1060

====

For each record, write down the corresponding log10 of IC50.
Biological target: α3β4 nAChR (Homo sapiens, UniProt P30926+P32297)
Sequence (P32297 32-505): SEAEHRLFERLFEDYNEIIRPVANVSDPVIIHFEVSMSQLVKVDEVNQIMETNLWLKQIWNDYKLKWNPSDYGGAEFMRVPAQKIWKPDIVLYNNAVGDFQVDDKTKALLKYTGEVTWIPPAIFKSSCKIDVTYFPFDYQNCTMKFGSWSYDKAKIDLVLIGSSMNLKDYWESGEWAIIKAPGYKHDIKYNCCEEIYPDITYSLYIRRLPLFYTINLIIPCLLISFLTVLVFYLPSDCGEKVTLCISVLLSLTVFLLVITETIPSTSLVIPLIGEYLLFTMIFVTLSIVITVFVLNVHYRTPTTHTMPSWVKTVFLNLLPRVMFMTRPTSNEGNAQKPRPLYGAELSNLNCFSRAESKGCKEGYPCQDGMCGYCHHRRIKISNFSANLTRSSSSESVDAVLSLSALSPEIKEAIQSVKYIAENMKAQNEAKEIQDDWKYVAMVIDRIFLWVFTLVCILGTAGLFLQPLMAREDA
Sequence (P30926 22-498): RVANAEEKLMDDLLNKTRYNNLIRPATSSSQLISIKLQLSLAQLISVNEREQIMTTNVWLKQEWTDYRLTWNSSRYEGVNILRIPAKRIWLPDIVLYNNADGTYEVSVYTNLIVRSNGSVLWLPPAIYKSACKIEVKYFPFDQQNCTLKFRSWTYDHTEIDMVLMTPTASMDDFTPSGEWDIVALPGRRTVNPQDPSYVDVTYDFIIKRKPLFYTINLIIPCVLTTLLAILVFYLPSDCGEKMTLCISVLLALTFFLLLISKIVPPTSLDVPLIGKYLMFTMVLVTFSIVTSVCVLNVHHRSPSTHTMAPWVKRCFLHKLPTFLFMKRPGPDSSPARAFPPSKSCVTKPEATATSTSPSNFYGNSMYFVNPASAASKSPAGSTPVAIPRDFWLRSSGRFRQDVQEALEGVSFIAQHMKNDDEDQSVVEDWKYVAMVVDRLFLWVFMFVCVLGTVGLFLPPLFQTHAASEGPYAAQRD
Test: Inhibition of α3β4 100 µM ACh-evoked peak currents
Conditions: co-application with 100 µM ACh, peak currents
Protocol: Although none of the other sulfonium compounds activated neuronal heteromeric receptors, several of them produced inhibition of ACh-evoked responses. […] Solutions were applied from 96-well plates via disposable tips. […] The responses were calculated as both peak current amplitudes and net charge, as previously described. […] Data were expressed as means ± SEM from at least four oocytes for each experiment and plotted with Kaleidagraph 4.5.2 (Abelbeck Software, Reading, PA, USA). […]
A value of 2 here means IC50 of 100 in µM, since values are log10.

Field log10 of IC50 (α3β4 nAChR (Homo sapiens, UniProt P30926+P32297)), entry CC[S+](CC)CC [Compound S11, triethylsulfonium iodide] : 2.03

Field log10 of IC50 (α3β4 nAChR (Homo sapiens, UniProt P30926+P32297)), entry CCOCC(O)COc1ccc(NC(=O)CC[S+](C)C)cc1.Cc1ccc(S(=O)(=O)[O-])cc1 (centres unmarked) [Compound S6, reference compound] : 0.65

Field log10 of IC50 (α3β4 nAChR (Homo sapiens, UniProt P30926+P32297)), entry C[S+](Cc1ccccc1)Cc1ccccc1 [Compound S8] : 0.53

Field log10 of IC50 (α3β4 nAChR (Homo sapiens, UniProt P30926+P32297)), entry COc1ccc([N+](=O)[O-])cc1C[S+](C)C.[Br-] [Compound S3] : 1.26

Field log10 of IC50 (α3β4 nAChR (Homo sapiens, UniProt P30926+P32297)), entry C[S+](C)c1ccc(O)cc1 [Compound S9] : 2.09

====

Biological target: human α7 receptors (Homo sapiens)
Test: Activation of human α7 receptors expressed in Xenopus oocytes, compounds applied alone (two-electrode voltage clamp, net charge)
Details: α7; Hill fit, Table 2; unit printed in text b9 only; read-out: EC50 (S1 Activation)
MEASUREMENT_LABEL: EC50 (µM)
Write the answer as a number in µM, unit excluded.

Sample C[S+](C)C.[I-] [Compound S1, trimethylsulfonium iodide] ; EC50 observed: 98

====

Target: β3α4 β2α6β2 (Homo sapiens, UniProt P17787+P43681+Q15825)
Sequence (P43681 29-627 limits assumed): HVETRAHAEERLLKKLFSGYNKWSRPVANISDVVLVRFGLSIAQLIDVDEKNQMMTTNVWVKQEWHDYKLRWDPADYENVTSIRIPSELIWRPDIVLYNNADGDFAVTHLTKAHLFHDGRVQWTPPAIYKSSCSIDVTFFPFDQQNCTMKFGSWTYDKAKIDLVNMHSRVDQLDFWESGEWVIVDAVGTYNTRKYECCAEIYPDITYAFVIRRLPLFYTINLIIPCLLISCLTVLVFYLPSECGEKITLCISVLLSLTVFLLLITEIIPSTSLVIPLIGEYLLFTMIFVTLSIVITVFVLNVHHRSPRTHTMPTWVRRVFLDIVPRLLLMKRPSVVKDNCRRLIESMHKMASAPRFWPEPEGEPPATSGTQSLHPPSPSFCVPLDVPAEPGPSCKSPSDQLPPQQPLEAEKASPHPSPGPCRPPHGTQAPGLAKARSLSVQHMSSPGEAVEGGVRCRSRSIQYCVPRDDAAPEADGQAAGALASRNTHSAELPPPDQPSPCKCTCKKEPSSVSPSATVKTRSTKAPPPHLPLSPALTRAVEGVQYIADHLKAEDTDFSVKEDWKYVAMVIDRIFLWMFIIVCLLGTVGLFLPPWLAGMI
Sequence (P17787 26-502): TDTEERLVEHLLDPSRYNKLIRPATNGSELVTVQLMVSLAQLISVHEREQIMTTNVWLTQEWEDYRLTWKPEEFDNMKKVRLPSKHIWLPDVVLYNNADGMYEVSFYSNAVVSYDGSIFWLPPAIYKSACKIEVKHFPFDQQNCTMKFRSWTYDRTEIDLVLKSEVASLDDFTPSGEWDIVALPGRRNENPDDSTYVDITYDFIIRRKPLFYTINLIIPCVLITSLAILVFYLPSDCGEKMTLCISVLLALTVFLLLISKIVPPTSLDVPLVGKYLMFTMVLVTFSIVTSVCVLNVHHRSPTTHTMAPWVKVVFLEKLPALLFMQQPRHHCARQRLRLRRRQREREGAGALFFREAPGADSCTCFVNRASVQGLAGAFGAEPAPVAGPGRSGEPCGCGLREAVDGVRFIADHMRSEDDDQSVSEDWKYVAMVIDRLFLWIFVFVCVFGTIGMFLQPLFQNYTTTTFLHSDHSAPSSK
Sequence (Q15825 26-494): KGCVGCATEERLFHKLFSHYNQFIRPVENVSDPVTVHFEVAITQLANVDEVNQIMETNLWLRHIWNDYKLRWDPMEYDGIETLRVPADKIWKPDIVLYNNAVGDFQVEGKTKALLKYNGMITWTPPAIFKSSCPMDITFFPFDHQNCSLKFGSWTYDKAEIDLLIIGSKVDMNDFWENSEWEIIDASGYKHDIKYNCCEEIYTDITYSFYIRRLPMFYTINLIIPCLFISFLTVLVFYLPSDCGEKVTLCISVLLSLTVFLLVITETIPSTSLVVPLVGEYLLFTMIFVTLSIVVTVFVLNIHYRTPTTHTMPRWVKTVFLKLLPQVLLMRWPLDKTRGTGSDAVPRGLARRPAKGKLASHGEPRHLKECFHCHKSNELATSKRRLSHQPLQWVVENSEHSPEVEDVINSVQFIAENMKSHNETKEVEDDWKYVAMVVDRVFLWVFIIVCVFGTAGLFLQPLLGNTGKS
Test: Activation of heteromeric nAChR by S1: β3α4β2α6β2 concatamer
Conditions: peak currents, unit inferred
MEASUREMENT_LABEL: EC50
Dear colleague, please send the value followed by its unit.

Sample C[S+](C)C.[I-] [Compound S1, trimethylsulfonium iodide] ; EC50 observed: 333 µM

====

Molecular target: α7 nAChR (Homo sapiens)
Construct: expressed in transfected cells; host or cells: Xenopus laevis oocytes (injected RNA)
Test: α7 responses on co-application with the type II PAM TQS (silent agonism)
Assay type: cell-based
Conditions: inactive alone, active with a PAM = silent agonist
MEASUREMENT_LABEL: α7 functional classification (silent agonist / inactive)

Record excerpt, results attached:
COMPOUND	OBS_VALUE
C[S+](C)c1cc([N+](=O)[O-])ccc1O.[Br-]	silent agonist activity
COc1ccc([N+](=O)[O-])cc1C[S+](C)C.[Br-]	silent agonist activity
C[S+](C)CC(=O)c1ccccc1.F[B-](F)(F)F	silent agonist activity
OCC[S+](CCO)CCO.[Br-] [Compound S4, tris(2-hydroxyethyl)sulfonium bromide]	simply inactive
C[S+](C)c1ccc(O)cc1	silent agonist activity

Sample "C[S+](C)c1ccc(O)cc1O" ; α7 functional classification (silent agonist / inactive) observed: simply inactive

Sample CCOCC(O)COc1ccc(NC(=O)CC[S+](C)C)cc1.Cc1ccc(S(=O)(=O)[O-])cc1 (stereo not drawn) [Compound S6, reference compound] ; α7 functional classification (silent agonist / inactive) observed: silent agonist activity

====

Molecular target: α7 nAChR (Homo sapiens, UniProt P36544)
Construct: expressed in transfected cells; host or cells: Xenopus laevis oocytes (injected RNA)
Sequence (P36544 23-502): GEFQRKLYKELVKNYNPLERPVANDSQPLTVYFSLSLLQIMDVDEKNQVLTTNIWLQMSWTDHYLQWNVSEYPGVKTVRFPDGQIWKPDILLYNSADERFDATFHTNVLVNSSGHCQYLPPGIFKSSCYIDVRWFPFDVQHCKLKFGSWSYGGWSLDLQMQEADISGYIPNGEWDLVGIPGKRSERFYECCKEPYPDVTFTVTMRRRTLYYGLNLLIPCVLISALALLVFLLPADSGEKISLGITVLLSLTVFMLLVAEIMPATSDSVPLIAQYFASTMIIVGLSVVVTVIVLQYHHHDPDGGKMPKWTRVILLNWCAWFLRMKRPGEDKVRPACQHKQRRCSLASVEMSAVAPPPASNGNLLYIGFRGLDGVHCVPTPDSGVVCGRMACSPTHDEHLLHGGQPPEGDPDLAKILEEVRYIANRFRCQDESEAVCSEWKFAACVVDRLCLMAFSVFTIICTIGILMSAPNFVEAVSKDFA
Experiment: Inhibition of α7 ACh-evoked responses
Assay type: cell-based
Conditions: compound 1 mM co-applied with 60 µM ACh

COMPOUND_SMILES	TESTED_TARGET	effect on 60 µM ACh response at 1 mM
C[S+](C)c1ccc(O)cc1	α7 nAChR (Homo sapiens, UniProt P36544)	significant inhibition
CCOC(=O)C[S+](C)C.[Br-]	α7 nAChR (Homo sapiens, UniProt P36544)	significant inhibition

====

Target: α7 nAChR (Homo sapiens, UniProt P36544)
Construct: expressed in transfected cells; host or cells: Xenopus laevis oocytes (injected RNA)
Assay: α7 concentration-response on co-application with 10 µM PNU-120596
Type: cell-based
Conditions: peak currents, co-applied with 10 µM PNU-120596, Hill fit; approximation only
Method: Compounds were co-applied at a concentration of 100 µM with 30 µM racemic TQS (Figure 3A). All compounds except S4, S5, and S8 gave large responses when co-applied with TQS, consistent with silent agonism of α7 (see Table S1 for ANOVA). Active compounds were also evaluated across a range of concentrations with the alternative PAM, PNU-120596 (Figure 3B). […] Solutions were applied from 96-well plates via disposable tips. […] Multi-cell averages were calculated for comparisons of complex responses. […]
MEASUREMENT_LABEL: IMax (PNU Activation)
Simply state the number, no unit and no words.

Sample "CCOC(=O)C[S+](C)C.[Br-]" ; IMax (PNU Activation) observed: 16

Sample "COc1ccc([N+](=O)[O-])cc1C[S+](C)C.[Br-]" ; IMax (PNU Activation) observed: 22

Sample C[S+](C)C.[I-] [Compound S1, trimethylsulfonium iodide] ; IMax (PNU Activation) observed: 9.1

Sample CCOCC(O)COc1ccc(NC(=O)CC[S+](C)C)cc1.Cc1ccc(S(=O)(=O)[O-])cc1 (centres unmarked) [Compound S6, reference compound] ; IMax (PNU Activation) observed: 2.2

Sample "C[S+](C)c1cc([N+](=O)[O-])ccc1O.[Br-]" ; IMax (PNU Activation) observed: 4.6

Sample "C[S+](C)c1ccc(O)cc1" ; IMax (PNU Activation) observed: 3.98

====

Assay: pKa by titration
Format: physicochemical
Conditions: read-out: pKa for the second hydroxyl
Source text: One of the questions that emerges from the data is why aromatic sulfoniums as structurally similar as S5, S9, and S10 provide different responses when coapplied with TQS. Indeed, compounds S5 and S9 virtually overlap in their best docked poses (Supplementary Figure S1), but the α7 response of S9 and TQS was dramatically greater than that of S5 and TQS (p < 0.001, Table S1). […]
MEASUREMENT_LABEL: pKa

Sample "C[S+](C)c1ccc(O)cc1O" ; pKa observed: 9.2

====

Molecular target: α4(3)β2(2) (Homo sapiens, UniProt P17787+P43681)
Sequence (P17787 26-502): as the sequence (P17787 26-502) above
Sequence (P43681 29-627 limits assumed): as the sequence (P43681 29-627 limits assumed) above
Sequence (P43681 29-627 limits assumed): as above
Assay: Activation of heteromeric nAChR by S1: α4(3)β2(2)
Conditions: peak currents, unit inferred
MEASUREMENT_LABEL: EC50 (µM)
Write the answer as a number in µM, unit excluded.

Sample C[S+](C)C.[I-] [Compound S1, trimethylsulfonium iodide] ; EC50 observed: 246
